These entries and their values trace back to PubChem BioAssay AID624256.

method.summary: induction of myeloid progenitor differentiation, primary screen, cell-based, flow cytometry, MLPCN library (AID 624256);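 note: cells exposed to compound for four days before flow analysis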
assay.context: ER-HoxA9 myeloid progenitors, lysozyme-GFP differentiation, at 10 µM; measured here: differentiation confirmed by MAC1 staining, stronger effect = higher value
Out of some 360,000 compounds screened, about 3,700 (1%) were called active. Inconclusive results (about 2%) are left out. The sample as a whole holds a higher share of actives than the screen did.
measured.metric: GFP+ MAC1+ double positive (%)
Reply with just the number (in %).

Example results:
CCOC(=O)[C@]12Cc3cc(OC)ccc3[C@H]1N(C(C)C)C(=O)c1ccccc12 = 1.5
O=C1NC(=O)N(CCc2ccc(F)cc2)C(=O)/C1=C/C=C/c1ccccc1 = 0.9
COC(=O)C1=C(c2cc3ccccc3s2)C[C@@H]2CC[C@H]1N2C(=O)NCCO = 4.1
CC1C2Cn3c(nc4ccccc43)C1N(C)O2 (configuration not stated) = 1.5
CNC(=O)O/N=C(\N)Cc1csc2ccc(Cl)cc12 = 0.2

Input line: Look up GFP+ MAC1+ double positive: CC(C)Nc1nc(Cl)nc(NC(C)C)n1
Output line: 0.1

Input line: Look up GFP+ MAC1+ double positive: OCC#CC[N+]1(CC#Cc2ccccc2)CCCC1
Output line: 1.2
